test: Solubility; assay type: physicochemical
quantity: solubility

Consider CC1CCN(CCOCCOc2c(Cl)cc(Cl)cc2Cl)CC1 . Its measured solubility is > 500 µM

The reported numbers originate from patent US20230257350A1.
